# TARGET UNDER TEST: Delta-type opioid receptor (Mus musculus)
# Sequence (P32300 whole entry): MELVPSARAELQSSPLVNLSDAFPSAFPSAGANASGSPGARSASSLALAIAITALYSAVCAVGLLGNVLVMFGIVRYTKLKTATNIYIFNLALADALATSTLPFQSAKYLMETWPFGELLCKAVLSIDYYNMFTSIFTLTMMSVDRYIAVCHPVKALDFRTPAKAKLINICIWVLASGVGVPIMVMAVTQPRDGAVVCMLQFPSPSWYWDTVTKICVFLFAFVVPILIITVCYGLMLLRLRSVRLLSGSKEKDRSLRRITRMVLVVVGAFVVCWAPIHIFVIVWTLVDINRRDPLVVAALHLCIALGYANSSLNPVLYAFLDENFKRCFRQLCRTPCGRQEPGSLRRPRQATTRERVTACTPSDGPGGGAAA
# ASSAY EXPLANATION: Displacement of [3H]DPDPE from delta opioid receptor in mouse whole brain without cerebellum
MEASUREMENT NAME: pKi
As a rule, pKi stands for the negative log10 of the concentration, concentration in M.

CN1CC[C@]23Cc4nc5c(F)cccc5cc4C[C@@]2(O)[C@H]1Cc1ccc(O)cc13 ... 9.84
CN1CC[C@]23Cc4nc5cc(F)ccc5cc4C[C@@]2(O)[C@H]1Cc1ccc(O)cc13 ... 9.59
CN1CC[C@]23Cc4nc5cccc(C(F)(F)F)c5cc4C[C@@]2(O)[C@H]1Cc1ccc(O)cc13 ... 9.61
Oc1ccc2c3c1O[C@H]1c4[nH]c5ccccc5c4C[C@@]4(O)[C@@H](C2)N(CC2CC2)CC[C@]314 [NALTRINDOLE] ... 9.77
CN1CC[C@]23Cc4nc5c(C(F)(F)F)cccc5cc4C[C@@]2(O)[C@H]1Cc1ccc(O)cc13 ... 9.31
COc1ccc2cc3c(nc2c1)C[C@]12CCN(C)[C@H](Cc4ccc(O)cc41)[C@]2(O)C3 ... 9.09
CN1CC[C@]23Cc4nc5cccc(Cl)c5cc4C[C@@]2(O)[C@H]1Cc1ccc(O)cc13 ... 9.45

stdin: Form field: pKi recorded for "Cc1ccc2cc3c(nc2c1)C[C@]12CCN(C)[C@H](Cc4ccc(O)cc41)[C@]2(O)C3" with Delta-type opioid receptor (Mus musculus) (enter value)
stdout: 9.44
